Measured pKd of individual entries
target.desc: T1, recombinant CD3D&E protein (human CD3-his tag) (human, UniProt P04234 22-105; P07766 23-126, limits assumed)
T1 construct: Analyte in Biacore; also called CD3D&E-His; CD3d&ε-His
experimental.protocol: SPR Biacore, Ab captured on Protein A;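 also: humanized antibodies on a Protein A chip, human CD3-his analyte flowed over in serial dilutions for 3 min, dissociation tracked 120–360 s on a Biacore T200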
pKd here: minus log base 10 of the concentration, concentration in moles per litre.

Hu192A7B9-14 (antibody, V domains shown, humanized mAb) VH: EVQLQESGPGLVKPSETLSLTCTVSGGSISSYNVHWVRQPPGKGLEWIGRMRYNGDTSYNSALKSRVTISRDTSKNQFSLKLSSVTAADTAVYYCARGPRGGYYSALFDYWGQGTMVTVSS VL: DIQMTQSPSSLSASVGDRVTITCKASQNINRYLNWYQQKPGKAPKLLISIANSLQTGIPSRFSGSGSGTDFTLTISSLQPEDFATYYCLQHNSWYTFGQGTKLEIK | 7.06

We next turn to a different binder, shown below.
Problem: Entry Hu192A7B9-17 (antibody, V domains shown, humanized mAb) VH: EVQLQESGPGLVKPSETLSLTCTVSGFSISSYNVHWVRQPPGKGLEWMGRMRYNGDTSYNSALKSRLTISRDTSKNQVSLKLSSVTAADTAVYYCTRGPRGGYYSALFDYWGQGTMVTVSS VL: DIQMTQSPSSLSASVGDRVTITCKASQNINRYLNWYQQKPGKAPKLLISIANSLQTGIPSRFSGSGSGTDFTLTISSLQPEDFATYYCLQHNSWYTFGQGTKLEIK : reported pKd = ?
Solution: 7.19
